# System: LOX IMVI
# protocol: NCI tumour cell line growth inhibition, 48 h
Calls of active or inactive are those of the source. Rule as the data show it: active = GI50 up to about 1.1 µM and inactive = higher.
Could you please pick one outcome from this set? 1 for active, -1 for inactive

Dear all, I need the recorded test outcome for Cn1nc(-c2ccccc2)c(C(=O)/C=C/c2ccc(F)cc2)c(N2CCOCC2)c1=O , thank you. -1

# lookup: test call for CC1=NN(C(=O)c2ccccc2O)C(=O)/C1=C/c1ccccc1O 1

Check the results log: what was the call for COc1cc(C(=O)OC2CC34CCNC35CC(OC5(OC)C2O)c2cc3c(cc24)OCO3)ccc1O (stereo not given) ? -1

For CCOC(=O)C1C[C@H]2CO[C@H](c3ccccc3)N2C1=O (stereo not given in full) , which call appears in the assay record? -1

Hello, I am checking results. What call was entered for C=CCN(CC=C)CC(C(C)=O)C(c1ccccc1)c1c(O)c2ccccc2oc1=O (stereo not given) ? -1

Call for entry CCOC(=O)/C(=C\c1ccc(OCc2ccccc2)c(OC)c1)C(=O)c1ccccc1 : -1

Check the results log: what was the call for CC(=O)OCC1OC(O[C@H]2C=C[C@@H](C(=O)OCc3ccccc3)n3c(=O)n(-c4ccccc4)c(=O)n32)C(OC(C)=O)C(OC(C)=O)C1OC(C)=O (stereo not given in full) ? -1

# lookup: test call for CN(C)NC(=S)Nc1ccccc1Br -1

What was the test verdict on CC1(C)C(=O)N(CCCCCCN2C(=O)C(C)(C)c3ccccc32)c2ccccc21 ? -1

Per the records of this test, what outcome belongs to O=C1CC(C(=O)N2CCCCC2)n2c(=O)n(-c3ccccc3)c(=O)n2C1 (stereo not given) ? -1

Tell me the assay call for CCOC(=O)C1S/C(=N\c2ccc(C)c(C)c2)N=C1C (stereo not given) please. -1

# outcome recorded in this test, key = COc1cc([N+](=O)[O-])c(OC)c2c(Nc3ccc(S(=O)(=O)O)c4cc(S(=O)(=O)O)cc(S(=O)(=O)O)c34)cc(C)nc12 -1

Given COc1ccc2nc3ccc(OC)cc3c(SCCCl)c2c1 , state the outcome it received in this test. -1

Assay outcome for CC(=O)Oc1cc(Cl)c(C)c2c1[C@H]1CC[C@]3(C)[C@@H](OC(C)=O)CC[C@H]3[C@@H]1CC2 : what was it? -1

How was COC(=O)[C@]1(C)CCCC2(C)C1CC[C@H]1C=C(C)[C@H]3CCC12C3 (stereo not given in full) classified in this test? -1
